Entry source: patent US5585382A

experiment: Solubility in water
Each entry below carries its reported solubility.
Give the quantity in µg/mL, number only.

compound="C[C@H](CNC[C@@H](C)N1C(=O)c2cc([N+](=O)[O-])cc3c2c(cc2cccnc23)C1=O)NC[C@@H](C)N1C(=O)c2cc([N+](=O)[O-])cc3c2c(cc2cccnc23)C1=O [Example 21]" unitssymbol=µg/mL obsvalue=7700
compound="O=C1c2cc([N+](=O)[O-])cc3c2c(cc2cccnc23)C(=O)N1CCNCCN1C(=O)c2cc([N+](=O)[O-])cc3c2c(cc2cccnc23)C1=O [Example 2]" unitssymbol=µg/mL obsvalue=10
compound="CS(=O)(=O)O.CS(=O)(=O)O.CS(=O)(=O)O.Nc1cc2c3c(cc4cccnc4c3c1)C(=O)N(CCCCNCCCN1C(=O)c3cc(N)cc4c3c(cc3cccnc34)C1=O)C2=O [Example 9]" unitssymbol=µg/mL obsvalue=11000
compound="CS(=O)(=O)O.O=C1c2cccc3cc([N+](=O)[O-])cc(c23)C(=O)N1CCCCNCCCN1C(=O)c2cc([N+](=O)[O-])cc3c2c(cc2ncccc23)C1=O [Example 115]" unitssymbol=µg/mL obsvalue=150
compound="CS(=O)(=O)O.CS(=O)(=O)O.O=C1c2cc([N+](=O)[O-])cc3c2c(cc2cccnc23)C(=O)N1CCNCCNCCN1C(=O)c2cc([N+](=O)[O-])cc3c2c(cc2cccnc23)C1=O [Example 6]" unitssymbol=µg/mL obsvalue=330
compound="CS(=O)(=O)O.CS(=O)(=O)O.Cc1nc2cc3c4c(cccc4c2[nH]1)C(=O)N(CCCNCCCCN1C(=O)c2cccc4cc([N+](=O)[O-])cc(c24)C1=O)C3=O [Example 140]" unitssymbol=µg/mL obsvalue=9000
compound="CS(=O)(=O)O.O=C1c2cccc3c2c(cc2ccccc23)C(=O)N1CCCCNCCCN1C(=O)c2cccc3c2c(cc2ccccc23)C1=O [Example 40]" unitssymbol=µg/mL obsvalue=60
compound="CS(=O)(=O)O.O=C1c2cc([N+](=O)[O-])cc3c2c(cc2ncccc23)C(=O)N1CCCCNCCCN1C(=O)c2cc([N+](=O)[O-])cc3c2c(cc2ncccc23)C1=O [Example 18]" unitssymbol=µg/mL obsvalue=20
compound="Cc1cnc2c(c1)cc1c3c(cc([N+](=O)[O-])cc32)C(=O)N(CCCNCCN2C(=O)c3cc([N+](=O)[O-])cc4c3c(cc3cc(C)cnc34)C2=O)C1=O [Example 22]" unitssymbol=µg/mL obsvalue=30
compound="CS(=O)(=O)O.CS(=O)(=O)O.CS(=O)(=O)O.Cc1nc2cc3c4c(cccc4c2[nH]1)C(=O)N(CCCCNCCCN1C(=O)c2cccc4c2c(cc2nc(C)[nH]c24)C1=O)C3=O [Example 81]" unitssymbol=µg/mL obsvalue=7600

From here, focus on the item given below.
Per the records, this compound ( C[C@H](CNCCNC[C@@H](C)N1C(=O)c2cc([N+](=O)[O-])cc3c2c(cc2cccnc23)C1=O)N1C(=O)c2cccc3cc([N+](=O)[O-])cc(c23)C1=O [Example 123] ) has solubility equal to 5770
